Data provenance is patent US20030032774A1.

What Ki was measured for each of the following?
# test-system: μ receptor (Rattus norvegicus)
# Construct: the brains (minus the cerebellum) were removed, placed in ice-cold saline solution, and then homogenized; from tissue; host or cells: rat brain (minus cerebellum) membranes
# Sequence (P33535 whole entry): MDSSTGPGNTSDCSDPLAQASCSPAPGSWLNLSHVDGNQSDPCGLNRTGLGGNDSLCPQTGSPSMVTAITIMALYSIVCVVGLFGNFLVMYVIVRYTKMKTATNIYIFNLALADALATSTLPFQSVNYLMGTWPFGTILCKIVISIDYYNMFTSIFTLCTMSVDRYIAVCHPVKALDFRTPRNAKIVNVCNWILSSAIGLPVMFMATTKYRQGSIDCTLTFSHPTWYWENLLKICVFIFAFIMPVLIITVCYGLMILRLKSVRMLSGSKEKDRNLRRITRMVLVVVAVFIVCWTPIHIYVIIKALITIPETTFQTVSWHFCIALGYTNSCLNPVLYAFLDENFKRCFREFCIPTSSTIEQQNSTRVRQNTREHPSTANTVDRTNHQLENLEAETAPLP
# measurement-protocol: Radioligand binding assay, μ opioid receptor ((3H)-DAMGO, brain membranes)
# experimental-parameters: Ki^μ, Table 1
Square brackets hold non-standard residues; d marks the D form. Peptide text beside a SMILES is read from it. * marks the point of attachment. Phe(4-NO2) = N[C@@H](Cc1ccc([N+](=O)[O-])cc1)C(=O)O; 1Nal = N[C@@H](Cc1cccc2ccccc12)C(=O)O; 2Nal = N[C@@H](Cc1ccc2ccccc2c1)C(=O)O; Bn = c1ccc(C*)cc1
Answers are plain numbers, in nM.

Worked examples, 3 molecules total:
molecule="C[C@@H](NC(=O)[C@@H](N)Cc1ccc(O)cc1)C(=O)N[C@@H](Cc1ccc([N+](=O)[O-])cc1)C(=O)N[C@@H](Cc1ccc([N+](=O)[O-])cc1)C(N)=O [BCH1777, H-Tyr-D-Ala-Phe(4-NO2)-Phe(4-NO2)—NH2] (H-Y[dA][Phe(4-NO2)][Phe(4-NO2)]-NH2)" val=0.826
molecule="C[C@@H](NC(=O)[C@@H](N)Cc1ccc(O)cc1)C(=O)N[C@@H](Cc1ccccc1)C(=O)N[C@@H](CSCc1ccccc1)C(N)=O [BCH3240, H-Tyr-D-Ala-Phe-Cys(Bzl)NH2] (H-Y[dA]FC(Bn)-NH2)" val=5.3
molecule="C[C@@H](NC(=O)[C@@H](N)Cc1ccc(O)cc1)C(=O)N[C@@H](Cc1ccc2ccccc2c1)C(=O)N[C@@H](Cc1cccc2ccccc12)C(N)=O [BCH758, H-Tyr-D-Ala-2′-Nal-1′-Nal-NH2] (H-Y[dA][2Nal][1Nal]-NH2)" val=5.61

--- query ---
Request: What value of Ki has been reported for the following molecule? C[C@@H](NC(=O)[C@@H](N)Cc1ccc(O)cc1)C(=O)N[C@@H](Cc1ccccc1)C(=O)N[C@@H](Cc1c[nH]c2ccccc12)C(N)=O [BCH1785, H-Tyr-D-Ala-Phe-Trp-NH2] (H-Y[dA]FW-NH2)
Response: 2.21
